- tested.on: CCR2 (Homo sapiens)
- Sequence (P41597 1-360 isoform P41597-2): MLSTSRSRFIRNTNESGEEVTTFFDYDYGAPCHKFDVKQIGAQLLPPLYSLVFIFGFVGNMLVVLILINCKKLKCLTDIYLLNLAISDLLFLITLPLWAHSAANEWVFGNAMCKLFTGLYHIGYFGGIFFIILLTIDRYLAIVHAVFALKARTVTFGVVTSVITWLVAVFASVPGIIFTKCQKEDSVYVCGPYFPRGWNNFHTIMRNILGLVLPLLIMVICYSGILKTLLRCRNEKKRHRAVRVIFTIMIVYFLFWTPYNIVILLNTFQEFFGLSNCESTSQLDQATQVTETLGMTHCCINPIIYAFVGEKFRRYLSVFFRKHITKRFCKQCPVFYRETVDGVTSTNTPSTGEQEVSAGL
- assay.info: MCP-1 Receptor Binding Assay in THP-1 Cells
- stated.conditions: THP-1 cells, 0.5 nM 125I labeled MCP-1, 2 hours at 30° C.; read-out: Mean Ligand Binding IC50 (inhibition of MCP-1 binding to CCR2)
readout.name: pIC50
// field semantics: pIC50 = negative decimal log of concentration (mol/L)

Request the reported pIC50 associated with `C[N+](C)(Cc1ccc(NC(=O)c2cc3ccccc3o2)cc1)C1CCCCC1`
6.16

Report pIC50 for `C[N+](C)(Cc1ccc(NC(=O)c2cc3ccccc3s2)cc1)C1CCCCC1` please.
6.77

# query: pIC50 of entry `C[N+](C)(Cc1cccc(NC(=O)C=Cc2ccc(F)cc2)c1)C1CCCCC1`
5.49

What pIC50 value was documented for this molecule, `C[N+](C)(Cc1ccc(NC(=O)c2ccc(Cl)c(Cl)c2)cc1)C[C@H]1CCCO1` ?
6.07

Entry `C[N+](C)(Cc1ccc(NC(=O)C2=Cc3cccc(C(F)(F)F)c3OC2)cc1)C1CCCCC1` : reported pIC50 = ?
6.33

# lookup: pIC50 of `C[N+](C)(Cc1ccc(NC(=O)c2ccc(Cl)c(C(F)(F)F)c2)cc1)C1CCOCC1`
6.40

Given the entry `C[N+](C)(Cc1ccc(NC(=O)c2cc3cc(Cl)ccc3[nH]2)cc1)C1CCCCC1` , report its measured pIC50.
6.70

Dear colleague, I am looking for the recorded pIC50 of the following molecule: `C[N+](C)(Cc1ccc(NC(=O)C2=Cc3cc(Cl)ccc3OC2)cc1)C[C@H]1CCCO1`
5.51

Looking for the measured pIC50 of `COc1ccc2c(c1)C=C(C(=O)Nc1ccc(C[N+](C)(C)C3CCCCC3)cc1)CO2` , can you help?
5.96

Reported pIC50, molecule `C[N+](C)(Cc1ccc(NC(=O)C2=Cc3cccc(F)c3OC2)cc1)C1CCCCC1` : ____
6.04

Entry `Cc1cc(Cl)cc2c1OCC(C(=O)Nc1ccc(C[N+](C)(C)C3CCCCCC3)cc1)=C2` has what pIC50?
6.70

I'd like to know its pIC50. The molecule in question is `Cc1ccc2c(c1)C=C(C(=O)Nc1ccc(C[N+](C)(C)C3CCCCC3)cc1)CO2`
6.49

I am curious: what pIC50 value has been reported for `C[N+]1(Cc2ccc(NC(=O)c3ccc(Cl)c(Cl)c3)cc2)CCCC1` ?
5.57

Return reported pIC50; argument: `COc1ccc2c(c1)OCC(C(=O)Nc1ccc(C[N+](C)(C)C3CCCCC3)cc1)=C2`
6.22

What value of measured pIC50 is listed for `C[N+](C)(Cc1ccc(NC(=O)c2c(Cl)cccc2Cl)cc1)C1CCCCC1` ?
4.87

Any idea what pIC50 was measured for `C[N+](C)(Cc1ccc(NC(=O)c2ccc(-c3ccccc3)cc2)cc1)C1CCOCC1` ?
6.06

// returns reported pIC50 for input `Cc1cc(Cl)ccc1C(=O)Nc1ccc(C[N+](C)(C)C2CCOCC2)cc1`
5.47

Need pIC50 of `C[N+](C)(Cc1ccc(CNC(=O)C=Cc2ccc(Cl)c(Cl)c2)cc1)C1CCOCC1` , thanks.
5.51

If you can, please state the reported pIC50 value of `Cc1cc(Cl)cc2c1OCC(C(=O)Nc1ccc(C[N+](C)(C)C3CCCCC3)cc1)=C2` .
7.22

Recorded pIC50 of `Cc1cccc2c1OCC(C(=O)Nc1ccc(C[N+](C)(C)C3CCCCC3)cc1)=C2` , please.
6.28

# pIC50 lookup, item `C[N+](C)(Cc1ccc(NC(=O)C2=Cc3c(ccc4ccccc34)OC2)cc1)C1CCCCC1`
7.10

Returns the measured pIC50 for the input molecule. Input: `C[N+](C)(Cc1ccc(NC(=O)c2cc(Cl)sc2Cl)cc1)C1CCOCC1`
5.82

If you can, please state the reported pIC50 value of `Cc1cccc(C=CC(=O)Nc2ccc(C[N+](C)(C)C3CCOCC3)cc2)c1` .
5.77

Bench note: what pIC50 did `C[N+]1(Cc2ccc(NC(=O)c3ccc(Cl)c(Cl)c3)cc2)CCOCC1` show?
5.00

For the molecule shown here, `C[N+](C)(Cc1ccc(CNC(=O)C=Cc2cccc(Br)c2)cc1)C1CCOCC1` , give the reported pIC50.
5.08

Fill blank: measured pIC50 of the molecule `C[N+]1(Cc2ccc(NC(=O)C=Cc3cccc(Br)c3)cc2)CCCCC1` is ____.
5.27

I am curious: what pIC50 value has been reported for `Cc1ccc(C(=O)Nc2ccc(C[N+](C)(C)C3CCOCC3)cc2)cc1Cl` ?
6.34

For the molecule CCC[N+](C)(Cc1ccc(NC(=O)c2ccc(Cl)c(Cl)c2)cc1)C1CCOCC1 (stereo not drawn) , what pIC50 is on record?
5.80

If you can, please state the reported pIC50 value of `C[N+](C)(Cc1ccc(NC(=O)c2ccc3ccccc3c2)cc1)C1CCOCC1` .
6.66

Please look up its pIC50: `COc1ccc(C(=O)Nc2ccc(C[N+](C)(C)C3CCOCC3)cc2)cc1Cl`
6.12

Recorded pIC50 for `C[N+](C)(Cc1ccc(NC(=O)C2=Cc3ccccc3CCC2)cc1)C1CCCCC1` , please?
6.15

Recorded pIC50 for `C[N+](C)(Cc1ccc(NC(=O)C2=Cc3c(ccc4ccccc34)OC2)cc1)C1CCOCC1` , please?
6.04

What measured pIC50 goes with `Cc1ccc2c(c1)OCC(C(=O)Nc1ccc(C[N+](C)(C)C3CCCCC3)cc1)=C2` ?
7.10

For `Cc1ccc(Cl)cc1C(=O)Nc1ccc(C[N+](C)(C)C2CCOCC2)cc1` , what is its reported pIC50?
6.40

Which pIC50 value belongs to `C[N+](C)(Cc1ccc(NC(=O)C=Cc2cc(F)cc(F)c2)cc1)C1CCOCC1` ?
5.24

Dear colleague, I am looking for the recorded pIC50 of the following molecule: `Cc1cc(Cl)cc2c1OCC(C(=O)Nc1ccc(C[N+](C)(C)C3CCCC3)cc1)=C2`
7.00

This collection of values is drawn from patent US7799824B2.
